# key: entry, value: viability, T/C
Test system: 126254-015-R-J1-PDC complex spheroid growth, % test/control;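 note: spheroids exposed to compound for seven days; 100% = DMSO vehicle control wells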
assay-comment: Anticancer human tumor 126254-015-R-J1-PDC patient-derived soft tissue sarcoma cell line growth inhibition [Asc]
assay-conditions: second compound 0.01 µM; first compound 3.16 µM; stronger effect = lower value
recorded-metric: viability, T/C (%)

* C#Cc1c(F)ccc2cc(O)cc(-c3ncc4c(N5CC6CCC(C5)N6)nc(OCC56CCCN5CC(F)C6)nc4c3F)c12 (centres undefined) + CNC(C)C(=O)NC1CN(S(=O)(=O)c2cccc(S(=O)(=O)N3CCC4CCC(C(=O)NC(c5ccccc5)c5ccccc5)N4C(=O)C(NC(=O)C(C)NC)C3)c2)CCC2CCC(C(=O)NC(c3ccccc3)c3ccccc3)N2C1=O | 81.7
* C=C(F)C(=O)N1CCN(c2nc(OCC3CCCN3C)nc3c2CCN(c2cccc4cccc(Cl)c24)C3)CC1CC#N (centres undefined) + CNC(C)C(=O)NC1CN(S(=O)(=O)c2cccc(S(=O)(=O)N3CCC4CCC(C(=O)NC(c5ccccc5)c5ccccc5)N4C(=O)C(NC(=O)C(C)NC)C3)c2)CCC2CCC(C(=O)NC(c3ccccc3)c3ccccc3)N2C1=O | 44.3
* C=CC(=O)N1CCN(c2nc(=O)n(-c3c(C)ccnc3C(C)C)c3nc(-c4c(O)cccc4F)c(F)cc23)C(C)C1 (centres undefined) + CNC(C)C(=O)NC1CN(S(=O)(=O)c2cccc(S(=O)(=O)N3CCC4CCC(C(=O)NC(c5ccccc5)c5ccccc5)N4C(=O)C(NC(=O)C(C)NC)C3)c2)CCC2CCC(C(=O)NC(c3ccccc3)c3ccccc3)N2C1=O | 101
* O=C(c1cc(Cc2n[nH]c(=O)c3ccccc23)ccc1F)N1CCN(C(=O)C2CC2)CC1 + CNC(C)C(=O)NC1CN(S(=O)(=O)c2cccc(S(=O)(=O)N3CCC4CCC(C(=O)NC(c5ccccc5)c5ccccc5)N4C(=O)C(NC(=O)C(C)NC)C3)c2)CCC2CCC(C(=O)NC(c3ccccc3)c3ccccc3)N2C1=O | 77.6
